- subjectOfTest: recombinant human cannabinoid CB2 receptor (Homo sapiens)
- Construct: purchased Receptor Biology RB-HCB2
- Sequence (P34972 whole entry): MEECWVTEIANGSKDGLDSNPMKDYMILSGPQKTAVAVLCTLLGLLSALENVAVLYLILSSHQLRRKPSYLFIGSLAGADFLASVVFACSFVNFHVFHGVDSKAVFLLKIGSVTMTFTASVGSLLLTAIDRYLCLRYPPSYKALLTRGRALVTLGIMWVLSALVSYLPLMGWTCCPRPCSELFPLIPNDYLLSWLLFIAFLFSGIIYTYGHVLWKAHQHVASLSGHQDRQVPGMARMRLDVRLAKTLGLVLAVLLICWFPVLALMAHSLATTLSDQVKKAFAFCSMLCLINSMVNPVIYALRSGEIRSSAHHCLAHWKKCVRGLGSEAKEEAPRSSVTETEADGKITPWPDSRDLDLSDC
- test: [3H] CP-55,940 competition binding to recombinant cannabinoid receptor membranes (CB2)
- statedConditions: 0.48 nM [3H] CP-55,940, 15 μg membrane protein, 2 hours at room temperature; read-out: Ki values (CB2 receptor)
readoutName: pKi
In simple prose, pKi is minus the logarithm base ten of a concentration in moles per litre.

Illustrative cases are given below, each with its answer.
compound	pKi
O=S(=O)(c1cc2ccccc2n1S(=O)(=O)c1ccccn1)N1CCC2(CC1)CC2NS(=O)(=O)C(F)(F)F (stereo not shown)	9.40
O=S(=O)(c1ccccc1F)c1cc(Cl)ccc1S(=O)(=O)N1CC2C(CNS(=O)(=O)C(F)(F)F)C2C1 (stereo not shown)	8.84
O=S(=O)(c1ccccn1)c1cc(Cl)ccc1S(=O)(=O)N1CC2C(CNS(=O)(=O)C(F)(F)F)C2C1 (stereo not shown)	8.82

Okay, next one:
Ask: What measured pKi goes with CS(=O)(=O)NCC1C2CN(S(=O)(=O)c3cc4ccccc4n3S(=O)(=O)c3ccccc3F)CC12 (stereo not shown) ?
Result: 9.00
